Experiment: Fraction unbound in human plasma
Type: ADME, cell-free

# smilesRepr, fraction unbound
rows = [
    ("CCNC1=N[C@@H]2[C@@H](O)[C@H](O)[C@@H](CO)O[C@@H]2S1", 0.76),
]

* * *

Assay: Cmax in rat assessed as change in histomorphology at 1000 mg/kg, po administered for 7 days and measured on day 8
Assay type: ADME, organism-based
Set-up: dose 1000 mg/kg, route oral
Details: in vivo
measuredMetric: Cmax (µM)

# smilesRepr, experimentalResult
records = [
    ("CCNC1=N[C@@H]2[C@@H](O)[C@H](O)[C@@H](C(F)F)O[C@@H]2S1", 226),
]

* * *

Experiment: Clearance in Wistar Han rat at 2 mg/kg, iv
Assay type: ADME, organism-based
Conditions: in vivo

# smilesRepr, clearance
measured = [
    ("CN(C)C1=N[C@@H]2[C@@H](O)[C@H](O)[C@@H](C(F)F)O[C@@H]2S1", "70.5 mL/min/kg"),
    ("CNC1=N[C@@H]2[C@@H](O)[C@H](O)[C@@H](CF)O[C@@H]2S1", "27.8 mL/min/kg"),
    ("CNC1=N[C@@H]2C[C@H](O)[C@@H](C(F)F)O[C@@H]2S1", "30.4 mL/min/kg"),
    ("OC[C@H]1O[C@@H]2SC(NCCF)=N[C@@H]2[C@@H](O)[C@@H]1O", "33.6 mL/min/kg"),
    ("CCN(C)C1=N[C@@H]2[C@@H](O)[C@H](O)[C@@H](CO)O[C@@H]2S1", "66.3 mL/min/kg"),
    ("CCCNC1=N[C@@H]2[C@@H](O)[C@H](O)[C@@H](C(F)F)O[C@@H]2S1", "72.6 mL/min/kg"),
    ("CN(C)C1=N[C@@H]2C[C@H](O)[C@@H](CO)O[C@@H]2S1", "25.7 mL/min/kg"),
    ("CN(C)C1=N[C@@H]2[C@@H](O)[C@H](O)[C@@H](CF)O[C@@H]2S1", "43.7 mL/min/kg"),
    ("CCNC1=N[C@@H]2[C@@H](O)[C@H](O)[C@@H](CO)O[C@@H]2S1", "25 mL/min/kg"),
]

* * *

Assay: Drug excretion in dog at 3 mg/kg, po
Type: ADME, organism-based, Canis lupus familiaris
Conditions: in vivo, read-out: Drug excretion
measuredMetric: dose excreted (%)

# smilesRepr, experimentalResult
records = [
    ("[3H][C@@]1(O)[C@@H](C(F)F)O[C@@H]2SC(NCC)=N[C@@H]2[C@H]1O", 88),
]

* * *

Assay: Protein binding in monkey plasma
Type: ADME, cell-free, Macaca mulatta
Conditions: rhesus monkey, read-out: PPB

# smilesRepr, fraction unbound
rows = [
    ("CCNC1=N[C@@H]2[C@@H](O)[C@H](O)[C@@H](C(F)F)O[C@@H]2S1", "> 0.95"),
]

* * *

Molecular target: Cav1.2 (Homo sapiens, UniProt Q13936)
Sequence (Q13936 whole entry): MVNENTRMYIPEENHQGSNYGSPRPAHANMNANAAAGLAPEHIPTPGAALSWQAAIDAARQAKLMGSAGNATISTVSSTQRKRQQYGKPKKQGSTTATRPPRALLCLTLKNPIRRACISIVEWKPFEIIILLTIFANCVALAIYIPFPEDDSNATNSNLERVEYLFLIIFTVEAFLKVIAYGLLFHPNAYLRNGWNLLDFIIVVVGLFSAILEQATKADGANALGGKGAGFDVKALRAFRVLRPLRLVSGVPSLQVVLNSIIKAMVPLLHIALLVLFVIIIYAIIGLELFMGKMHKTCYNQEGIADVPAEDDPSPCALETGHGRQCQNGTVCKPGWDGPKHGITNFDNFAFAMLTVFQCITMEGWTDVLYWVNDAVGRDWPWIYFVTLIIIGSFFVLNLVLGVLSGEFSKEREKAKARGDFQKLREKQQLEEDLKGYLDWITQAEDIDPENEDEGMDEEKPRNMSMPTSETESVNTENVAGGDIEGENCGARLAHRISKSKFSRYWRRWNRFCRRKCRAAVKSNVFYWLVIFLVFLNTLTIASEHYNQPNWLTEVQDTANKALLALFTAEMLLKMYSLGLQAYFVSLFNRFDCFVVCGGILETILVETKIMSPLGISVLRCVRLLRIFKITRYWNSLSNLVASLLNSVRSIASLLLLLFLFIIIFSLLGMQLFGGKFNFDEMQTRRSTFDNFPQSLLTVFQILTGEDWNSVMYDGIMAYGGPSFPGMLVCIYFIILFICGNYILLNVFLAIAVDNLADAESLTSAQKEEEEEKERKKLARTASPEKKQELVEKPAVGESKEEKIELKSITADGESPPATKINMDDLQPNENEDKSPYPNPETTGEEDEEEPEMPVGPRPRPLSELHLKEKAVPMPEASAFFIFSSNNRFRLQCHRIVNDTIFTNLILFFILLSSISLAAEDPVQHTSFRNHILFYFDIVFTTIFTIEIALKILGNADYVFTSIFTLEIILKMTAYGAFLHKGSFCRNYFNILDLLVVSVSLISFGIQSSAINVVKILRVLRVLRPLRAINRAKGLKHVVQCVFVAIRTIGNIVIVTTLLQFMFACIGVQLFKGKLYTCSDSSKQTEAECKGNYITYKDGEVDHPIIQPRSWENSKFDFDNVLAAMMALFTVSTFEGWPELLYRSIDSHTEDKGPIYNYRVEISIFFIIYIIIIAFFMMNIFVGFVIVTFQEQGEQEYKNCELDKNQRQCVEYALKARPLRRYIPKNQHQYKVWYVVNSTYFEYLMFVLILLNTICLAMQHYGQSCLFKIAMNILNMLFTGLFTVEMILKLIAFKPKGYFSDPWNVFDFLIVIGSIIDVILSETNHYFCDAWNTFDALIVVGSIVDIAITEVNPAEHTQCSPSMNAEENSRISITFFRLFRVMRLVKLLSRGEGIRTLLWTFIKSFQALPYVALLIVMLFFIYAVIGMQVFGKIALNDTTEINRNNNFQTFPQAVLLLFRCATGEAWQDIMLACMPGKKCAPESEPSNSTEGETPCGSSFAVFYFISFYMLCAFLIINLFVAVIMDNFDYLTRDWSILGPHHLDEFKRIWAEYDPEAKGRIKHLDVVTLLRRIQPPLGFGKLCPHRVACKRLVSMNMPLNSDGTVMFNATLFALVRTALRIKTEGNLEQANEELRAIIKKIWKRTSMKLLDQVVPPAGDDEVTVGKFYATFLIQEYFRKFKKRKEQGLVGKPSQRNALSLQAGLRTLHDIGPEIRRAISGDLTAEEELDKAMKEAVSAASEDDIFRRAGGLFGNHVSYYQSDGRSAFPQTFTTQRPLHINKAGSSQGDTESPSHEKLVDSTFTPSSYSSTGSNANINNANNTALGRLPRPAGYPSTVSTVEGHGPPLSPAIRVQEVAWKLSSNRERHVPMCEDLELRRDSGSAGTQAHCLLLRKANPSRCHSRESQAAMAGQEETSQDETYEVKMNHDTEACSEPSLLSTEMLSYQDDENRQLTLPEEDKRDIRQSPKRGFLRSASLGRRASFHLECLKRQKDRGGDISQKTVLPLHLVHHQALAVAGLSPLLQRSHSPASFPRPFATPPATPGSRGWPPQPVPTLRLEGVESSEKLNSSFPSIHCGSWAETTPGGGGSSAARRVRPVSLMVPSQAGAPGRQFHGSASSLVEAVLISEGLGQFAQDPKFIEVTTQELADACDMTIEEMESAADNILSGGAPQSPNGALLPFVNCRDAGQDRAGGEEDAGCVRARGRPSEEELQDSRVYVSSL
Experiment: Inhibition of Cav1.2 (unknown origin) at 30 uM

# smilesRepr, subjectOfTest, inhibition at 30 µM
records = [
    ("CCNC1=N[C@@H]2[C@@H](O)[C@H](O)[C@@H](C(F)F)O[C@@H]2S1", "Cav1.2 (Homo sapiens, UniProt Q13936)", "< 50%"),
]
